target: Bromodomain-containing protein 4 (Homo sapiens, UniProt O60885); test: Inhibition of 6His-tagged Thr-BRD4 (BD1) (1 to 477 residues) (unknown origin) expressed in Escherichia coli BL21(DE3) after 30 mins in presence of biotinylated triacetylated histone H4 peptide by alexa fluor 647 dyse based TR-FRET assay
Label class 1 when IC50 is strictly below 5 µM; otherwise label class 0.

Q) # strict comparison: is reported IC50 < 5 µM? input = `Cc1cncc(-c2cnc(N[C@@H]3C[C@H]4CC[C@H](N4)[C@H]3CCC3CCOCC3)c3[nH]c(=O)c(C)cc23)c1`
A) class 0

Q) # strict comparison: is reported IC50 < 5 µM? input = `CO[C@H]1CNC[C@@H](OCC2CCS(=O)(=O)CC2)[C@@H]1Nc1ncc(-c2cncc(C)c2)c2cc(C)c(=O)[nH]c12`
A) class 0

Q) # strict comparison: is reported IC50 < 5 µM? input = `CO[C@H]1CNC[C@@H](OCC2CCOCC2)[C@@H]1Nc1ncc(-c2cncc(C)c2)c2cc(C)c(=O)[nH]c12`
A) class 0

Q) # strict comparison: is reported IC50 < 5 µM? input = `Cc1cc2ccnc(N[C@@H]3CCNC[C@H]3OCC3CCCCC3)c2[nH]c1=O`
A) class 1

Q) # strict comparison: is reported IC50 < 5 µM? input = `Cc1cncc(-c2cnc(N[C@@H]3C[C@H]4CC[C@H](N4)[C@H]3CCC3CCS(=O)(=O)CC3)c3[nH]c(=O)c(C)cc23)c1`
A) class 0

Q) # strict comparison: is reported IC50 < 5 µM? input = `Cc1cncc(-c2ccc(N[C@@H]3CCNC[C@H]3OCC3CCC(F)(F)CC3)c3[nH]c(=O)c(C)cc23)c1`
A) class 0
